test: chemical genetic growth profiling, strain panel (AID 1159580);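 also: tested at 20 µM; growth read once vehicle control cultures reached saturation at 30 °C; 1 = growth at the plate median or of vehicle wells; lower values mean less growth of the strain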; conditions: S. cerevisiae deletion strains, growth OD, locus YGL167C, strain pmr1, hits give low values
Screen size: about 5,500 compounds; about 2,000 (36%) were called active. Inconclusive results (about 18%) are left out. This is one part of the list.
// boundary case: normalized growth equal to 1 maps to f; strictly smaller maps to t

smilesRepresentation | assignedLabel
CC1=CC(=O)c2ccccc2C1=O | f
CC(=O)Nc1ccc(S(=O)(=O)Nc2onc(C)c2C)cc1 | t
C[C@H]1c2cccc(O)c2C(O)=C2C(=O)[C@]3(O)C(O)=C(C(N)=O)C(=O)[C@@H](N(C)C)[C@@H]3[C@@H](O)[C@@H]21 | t

###

assay: chemical genetic growth profiling, strain panel (AID 1159580);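 also: tested at 20 µM; growth read once vehicle control cultures reached saturation at 30 °C; 1 = growth at the plate median or of vehicle wells; lower values mean less growth of the strain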; settings: S. cerevisiae deletion strains, growth OD, locus YPL241C, strain CIN2, hits give low values
The whole screen tested about 5,500 compounds, of which about 2,000 (36%) were called active. Inconclusive results (about 18%) are left out. Some of the results follow.
Entries and their normalized growth values follow.
metric: normalized growth

molecule | measuredNumber
CC(Cc1cccc(C(F)(F)F)c1)NCCOC(=O)c1ccccc1 (stereo not given) | 0.995
CCOC(CN(c1ccc(F)cc1)S(=O)(=O)c1ccc(F)cc1F)OCC | 1
C=C1c2cccc(O)c2C(O)=C2C(=O)[C@]3(O)C(O)=C(C(N)=O)C(=O)[C@@H](N(C)C)[C@@H]3[C@@H](O)[C@H]12 | 0.998
Cc1o[nH]c(=O)c1CC(N)C(=O)O (stereo not given) | 1.01
CC(C)(C)c1cc(C(=O)NNC(=O)c2cc(C(F)(F)F)cc(C(F)(F)F)c2)n(Cc2ccc(F)cc2)n1 | 1.01
O=C(O)c1ccc(S(=O)(=O)N(Cl)Cl)cc1 | 1
CN(C)[C@@H]1C(=O)C(C(N)=O)=C(O)[C@@]2(O)C(=O)C3=C(O)c4c(O)cccc4[C@@](C)(O)[C@H]3[C@H](O)[C@@H]12 | 1
COc1ccc(C2Sc3ccccc3N(CCN(C)C)C(=O)C2OC(C)=O)cc1 (stereo not given) | 1.01
O=C(NCO)c1cccnc1 | 0.958
CC1(C)CCC=[N+]1[O-] | 1
O=C(OCc1ccccc1)c1ccccc1 | 0.99
C/C(=C\c1ccc(C(=O)O)cc1)c1ccc2c(c1)C(C)(C)CCC2(C)C | 1.01
CN(C)CCCN1c2ccccc2CCc2ccccc21 | 1.01
CO[C@H]1CC(O[C@@H]2/C(C)=C/C[C@@H]3C[C@@H](C[C@]4(CC[C@H](C)[C@@H](C5CCCCC5)O4)O3)OC(=O)[C@@H]3C=C(C)/C(=N\O)[C@H]4OC/C(=C\C=C\[C@@H]2C)[C@]43O)O[C@@H](C)C1O (stereo not given in full) | 0.979
CCCN(CCC)S(=O)(=O)c1ccc(C(=O)O)cc1 | 0.991
Oc1cccc(O)c1 | 1.01
NCCCCCCNS(=O)(=O)c1cccc2c(Cl)cccc12 | 0.998
CCC1(O)CC2CN(CCc3c([nH]c4ccccc34)[C@@](C(=O)OC)(c3cc4c(cc3OC)N(C)C3[C@]45CCN4CC=C[C@@](CC)([C@@H](OC(C)=O)[C@]3(O)C(=O)OC)[C@H]45)C2)C1 (stereo not given in full) | 0.994
CC(=O)c1cc(CC=C(C)C)c(O)c(CC=C(C)C)c1 | 0.974
CN(C)CCCN1c2ccccc2Sc2ccccc21 | 0.999

Data provenance is PubChem BioAssay AID1159580.
